These data points were gathered from patent EP3064205A1.

System: SXFS 1937
Assay: 3D clonogenic assay (PDX)
Type: cell-based, human
Settings: Homo sapiens; SXFS 1937, Sarcoma Soft Tissue; read-out: abs. IC50
quantity_name: pIC50
# reply with the number alone; pIC50 is -log10 of concentration in mol/L

Look at this compound and give its reported pIC50. O[C@H](c1cc(-c2ccc(Cl)cc2)nc2ccccc12)[C@@H]1CCCCN1
5.00

----------
System: SXFS 1937
Assay: 3D clonogenic assay (PDX)
Type: cell-based, human
Details: Homo sapiens; SXFS 1937, Sarcoma Soft Tissue; read-out: rel. IC50
Protocol: The anti-tumor efficacy of S1 in the patient-derived tumor xenograft (PDX) tumor panel was assessed, where the efficacy of S1 in PDX tumor panel in the 96-well format, in 10 concentrations in duplicate was performed. Colony formation of tumor cell suspensions in a soft-agar matrix was observed and quantified. The output is IC50 values and dose response-relationships based on number of colonies in control and treatment wells, as identified by an automated image analysis algorithm. […]
quantity_name: pIC50
# reply with the number alone; pIC50 is -log10 of concentration in mol/L

Look at this compound and give its reported pIC50. O[C@H](c1cc(-c2ccc(Cl)cc2)nc2ccccc12)[C@@H]1CCCCN1
5.00
